molecular target: T1, human CD3 expressed on cells (Jurkat cells; human primary T cells) (human, UniProt P07766 23-207; P04234 22-171; P09693 23-182); assay: flow cytometry, 25 nM, Jurkat cells
T1 construct: whole, on cells
T1 sequence (P07766 23-207, chain 1 of 3): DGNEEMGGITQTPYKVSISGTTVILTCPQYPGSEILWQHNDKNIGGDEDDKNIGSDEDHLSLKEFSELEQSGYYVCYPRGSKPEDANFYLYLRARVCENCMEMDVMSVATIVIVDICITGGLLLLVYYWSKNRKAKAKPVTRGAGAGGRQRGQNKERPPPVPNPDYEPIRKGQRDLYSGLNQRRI
T1 sequence (P04234 22-171, chain 2 of 3): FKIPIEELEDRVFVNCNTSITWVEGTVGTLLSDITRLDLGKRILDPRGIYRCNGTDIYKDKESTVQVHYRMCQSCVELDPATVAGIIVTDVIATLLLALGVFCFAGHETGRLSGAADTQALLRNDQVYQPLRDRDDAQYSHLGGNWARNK
T1 sequence (P09693 23-182, chain 3 of 3): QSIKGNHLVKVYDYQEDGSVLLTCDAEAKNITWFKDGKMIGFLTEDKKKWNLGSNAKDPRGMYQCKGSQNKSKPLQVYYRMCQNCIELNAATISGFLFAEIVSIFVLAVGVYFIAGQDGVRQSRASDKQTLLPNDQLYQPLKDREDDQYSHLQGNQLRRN
Measured Binding (FOI) by item
Number only, in FOI; omit the unit.

mAb 212 (antibody, V domains shown, VH/VL only) VH: EVQLLESGGGLVQPGGSLRLSCAASGFTFSNYAMNWVRQAPGKGLEWVSAISGSRSNTYYADSVKGRFTISRDNSKNTLYLQMNSLRAEDTGVYYCAKGAYSKYPYYYYMDVWGKGTTVTVSS VL: EIVMTQSPATLSLSPGERATLSCRASQSVSSSYLSWYQQKPGQAPRLLIYGASTRAIGIPARFSGSGSGTDFTLTISSLQAEDFAVYYCQQDDNLPWTFGQGTKVEIK = 150

Note: attention shifts to another entry.
The reported Binding (FOI) of the binder mAb 240 (antibody, V domains shown, VH/VL only) VH: QGKLVESGGGVVQPGRSLRLSCVASGFTFSGYGMHWVRQAPNKGLEWVAIIYYDGKNKYYADSVKGRFTISRDNSKNTLYLQLNSLRAEDTAVYYCVRGPGYNWFDPWGQGTLVTVSS VL: EIVLTQSPDFQSVTPKEKVTITCRASQNIGSSLHWYQQKPDQSPKLLIKHASQSFSGVPSRFSGSGSGTDFTLTINSLEAEDAATYYCHQSSSLPYTFGQGTKLEIK was 177
